SYSTEM TESTED: Transient receptor potential cation channel subfamily V member 4 (Homo sapiens, UniProt Q9HBA0)
Sequence (Q9HBA0 whole entry): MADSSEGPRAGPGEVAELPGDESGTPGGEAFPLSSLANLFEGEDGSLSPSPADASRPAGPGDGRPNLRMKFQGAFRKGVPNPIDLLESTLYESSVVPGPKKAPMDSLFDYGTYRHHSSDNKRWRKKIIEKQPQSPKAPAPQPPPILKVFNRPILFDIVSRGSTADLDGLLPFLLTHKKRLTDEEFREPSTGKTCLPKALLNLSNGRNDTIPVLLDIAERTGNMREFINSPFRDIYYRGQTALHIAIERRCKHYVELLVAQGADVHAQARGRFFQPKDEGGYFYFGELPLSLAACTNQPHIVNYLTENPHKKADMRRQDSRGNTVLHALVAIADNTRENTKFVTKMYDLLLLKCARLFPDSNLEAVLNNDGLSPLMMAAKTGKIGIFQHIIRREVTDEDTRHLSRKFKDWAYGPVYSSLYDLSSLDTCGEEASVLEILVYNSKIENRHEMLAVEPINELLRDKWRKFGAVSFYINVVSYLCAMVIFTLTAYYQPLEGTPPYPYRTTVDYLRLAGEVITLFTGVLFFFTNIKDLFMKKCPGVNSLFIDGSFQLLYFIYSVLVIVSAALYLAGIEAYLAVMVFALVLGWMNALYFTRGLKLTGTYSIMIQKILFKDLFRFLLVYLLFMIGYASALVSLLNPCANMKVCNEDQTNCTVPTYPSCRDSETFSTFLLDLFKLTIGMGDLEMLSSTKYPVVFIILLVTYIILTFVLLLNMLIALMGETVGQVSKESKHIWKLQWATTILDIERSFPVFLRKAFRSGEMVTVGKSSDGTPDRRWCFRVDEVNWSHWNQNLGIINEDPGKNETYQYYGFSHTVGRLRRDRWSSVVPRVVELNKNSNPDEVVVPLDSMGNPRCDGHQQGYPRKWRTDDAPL
MEASUREMENT DESCRIPTION: Radiometric Calcium Assay: The inhibition of TRPA1 receptor activation was measured as inhibition of allylisothiocyanate (AITC) induced cellular uptake of radioactive calcium. Test compounds were dissolved in DMSO to prepare 10 mM stock solution and then diluted using plain medium with 0.1% BSA and 1.8 mM CaCl2 to get desired concentration. Final concentration of DMSO in the reaction was 0.5% (v/v). Human TRPA1 expressing CHO cells were grown in F-12 DMEM medium with 10% FBS, 1% penicillin-streptomycin solution, and 400 ug/ml of G-418. Cells were seeded 24 h prior to the assay in 96 well plates so as to get 50,000 cells per well on the day of experiment. Cells were treated with test compounds for 10 min followed by addition of AITC at a final concentration of 30 micromolar and 5 uCi/ml 45Ca+2 for 3 min at 25° C. Cells were washed and lysed using buffer containing 1% Triton X-100, 0.1% deoxycholate and 0.1% SDS. Radioactivity in the lysate was measured in Packard Top count.
Can you tell me IC50 for the items I'm about to list?

>  <COMPOUND STRUCTURE STRING>
Cn1c(=O)c2c(CC(=O)Nc3nc(-c4ccc(C(F)(F)F)c(F)c4F)cs3)nsc2n(C)c1=O

>  <IC50>
0.132 µM

$$$$
>  <COMPOUND STRUCTURE STRING>
Cn1nc2c(c1CC(=O)/N=c1\scc(-c3ccc(F)c(C(F)(F)F)c3F)n1COP(=O)(O)O)c(=O)n(C)c(=O)n2C

>  <IC50>
> 10 µM

$$$$
>  <COMPOUND STRUCTURE STRING>
Cc1oc2c(c1CC(=O)/N=c1\scc(-c3ccc(OC(F)(F)F)c(Cl)c3)n1COC(=O)[C@@H](N)C(C)C)c(=O)n(C)c(=O)n2C

>  <IC50>
2.35 µM

$$$$
>  <COMPOUND STRUCTURE STRING>
Cn1c(=O)c2c(CC(=O)Nc3nc(-c4ccc(F)c(C(F)(F)F)c4F)cs3)csc2n(C)c1=O

>  <IC50>
3.04 µM

$$$$
>  <COMPOUND STRUCTURE STRING>
Cc1oc2c(c1CC(=O)/N=c1\scc(-c3ccc(OC(F)(F)F)c(Cl)c3)n1COP(=O)(O)O)c(=O)n(C)c(=O)n2C

>  <IC50>
> 10 µM

$$$$

// below: IC50 requested for another compound
In plain terms, `Cc1oc2c(c1CC(=O)Nc1nc(-c3ccc(OC(F)(F)F)c(Cl)c3)cs1)c(=O)n(C)c(=O)n2C` has a documented IC50 of 5.74 µM
